Reference for the values: ChEMBL document CHEMBL1201862

test system: OVCAR-4; assay: NCI tumour cell line growth inhibition, 48 h
Calls of active or inactive are those of the source. No stated cut-off is given here; in the data, active = GI50 up to about 1.1 µM and inactive = higher.
The reader will find reported GI50 values listed item by item below.

# annotated cases, reported GI50 shown
compound	GI50
CCC1C2C=CC(CC2)N1S(=O)(=O)c1ccc(C)cc1 (centres undefined)	31.8 µM (inactive)
CN(N=O)C(=O)N(N)CCCCC(NC(=O)OCc1ccccc1)C(=O)OCc1ccccc1 (centres undefined)	33.7 µM (inactive)

Switching to the query record.
Entry CC(Oc1ccccc1Cl)C(=O)NN1C(=O)CSC1c1ccccc1 (centres undefined) — recorded GI50 = > 100 µM (inactive)

====

system: HOP-18; assay: NCI tumour cell line growth inhibition, 48 h
Activity calls are given as the source filed them. No stated cut-off is given here; in the data, active = GI50 up to about 1.1 µM and inactive = higher.
The reader will find reported GI50 values listed item by item below.

# annotated cases, reported GI50 shown
molecule	GI50
CN(C)CCNC(=O)c1ccc2ccc3cccnc3c2n1	26.2 µM (inactive)
O=c1c2ccccc2n2n1CC(O)C2 (stereo unspecified)	> 100 µM (inactive)
CC(=O)OC1COC(N2C(=O)/C(=N\Nc3ccc([N+](=O)[O-])cc3)c3cc(Br)c([N+](=O)[O-])cc32)C(OC(C)=O)C1OC(C)=O (stereo unspecified)	> 100 µM (inactive)
CCOC(=O)C(C(=O)OCC)c1ccc([N+](=O)[O-])o1	20 µM (inactive)
N#CCN1CCOCCOCCN(CC#N)CCOCCOCC1	> 100 µM (inactive)

Entry `Oc1cc(-c2cccc(F)c2)nc2cc3c(cc12)OCO3` — recorded GI50 = 5.42 µM (inactive)

Entry COc1ccc(C2C(Cl)C(=O)N2n2cnc3ccccc3c2=O)cc1OC (stereo unspecified) — recorded GI50 = 25.3 µM (inactive)

Entry `ClC[Si]12OCCN(CCO1)CCO2` — recorded GI50 = > 100 µM (inactive)

Entry `CCOc1cccc2[s+]snc12` — recorded GI50 = 77.8 µM (inactive)

Entry CC(C)N1CN(C(C(=O)N[C@@H]2C(=O)N3C2SC(C)(C)C3C(=O)O)c2ccccc2)CSC1=S (stereo partly specified) — recorded GI50 = > 100 µM (inactive)

Entry CC(C)COC(=O)N1N=NC2C3CC(=O)C(O3)C21 (stereo unspecified) — recorded GI50 = > 100 µM (inactive)
